Literature pKi values, system: C-C chemokine receptor type 3 (Homo sapiens, UniProt P51677).
pKi: −log10 of the molar value.

O=C(c1ccc(C(F)(F)F)cc1)N1CCN(S(=O)(=O)c2cc([N+](=O)[O-])ccc2Sc2cc(Cl)ccc2Cl)CC1 : < 5.30
N#Cc1ccc(Sc2cc(Cl)cc(Cl)c2)c(S(=O)(=O)N2CCC(F)CC2)c1 : ≥ 7.30
Cc1cc(C)cc(Sc2ccc(C#N)cc2S(=O)(=O)N2CCCCC2)c1 : ≥ 7.30
Cc1cc(CN2CCC(N3C(=O)CC[C@H]3C(=O)NCc3ccccc3OC(F)F)CC2)ccc1Cl : 6.68
CC(C)CC(=O)N1CCN(S(=O)(=O)c2cc(C#N)ccc2Oc2cc(Cl)cc(Cl)c2)CC1 : 5.30 to 6.30

Query string: Please look up its pKi: CC(C)N1CCN(S(=O)(=O)c2cc(C#N)ccc2Sc2cc(Cl)cc(Cl)c2)CC1=O
Result string: ≥ 7.30

Query string: Record: FC(F)(F)c1ccccc1/C=C1\CCN2Cc3ccccc3N=C12
Result string: 5.00 to 6.00

Query string: Record: Clc1ccccc1C=C1CCCN2Cc3ccccc3N=C12
Result string: 5.00 to 6.00

Query string: Record: Clc1cccc(Cl)c1C=C1CCN2Cc3ccccc3N=C12
Result string: 5.00 to 6.00

###

Literature Ki values, system: C-C chemokine receptor type 3 (Homo sapiens, UniProt P51677).

Here are 3 compounds together with their reported answers.
Cc1cc(CN2CCC(N3C(=O)CC[C@@H]3C(=O)Nc3cc(C(=O)N4CCOCC4)ccn3)CC2)ccc1Cl : 19.1 nM
C(=C1/CCN2Cc3ccccc3N=C12)/c1ccsc1 : 1000 to 10000 nM
O=C(c1ccc(Cl)cc1)N1CCN(S(=O)(=O)c2cc([N+](=O)[O-])ccc2Sc2cc(Cl)ccc2Cl)CC1 : > 5000 nM

Query string: Please look up its Ki: Cc1cc(CN2CCC(N3C(=O)CC[C@@H]3C(=O)Nc3ccc4[nH]ncc4c3)CC2)ccc1Cl
Result string: 50 nM

Query string: Record: N#Cc1ccc(Oc2cc(Cl)cc(Cl)c2)c(S(=O)(=O)NC2CCN(S(=O)(=O)c3cccc(F)c3)CC2)c1
Result string: > 5000 nM

Query string: Record: N#Cc1ccc(Oc2cc(Cl)cc(Cl)c2)c(S(=O)(=O)N2CCN(C(=S)NC(=O)c3ccccc3)CC2)c1
Result string: ≤ 50 nM

Query string: Record: Cc1cc(C)cc(Oc2ccc(C#N)cc2S(=O)(=O)N2CCN(C(=O)C(C)(C)C)CC2)c1
Result string: > 5000 nM

###

pKi: −log10 of the molar value.
Literature pKi values, system: C-C chemokine receptor type 3 (Homo sapiens).

Here are 3 compounds together with their reported answers.
N#Cc1ccc(Oc2cc(Cl)cc(Cl)c2)c(S(=O)(=O)N2CCC(NC(=O)NCCN3CCOCC3)CC2)c1 : ≥ 7.30
Cc1oc2nc3n(c(=N)c2c1C)CC/C3=C\c1ccccc1Br : 6.00 to 7.00
Cc1ccc(NC(=O)N2CCN(S(=O)(=O)c3cc([N+](=O)[O-])ccc3Sc3cc(Cl)ccc3Cl)CC2)cc1 : < 5.30

Query string: Please look up its pKi: CC1CC(C)CN(S(=O)(=O)c2cc(C#N)ccc2Sc2cc(Cl)cc(Cl)c2)C1 (stereo not shown)
Result string: < 5.30
